Molecular target: Astrosclerin-3 (Astrosclera willeyana, UniProt A6YCJ1)
Sequence (A6YCJ1 whole entry): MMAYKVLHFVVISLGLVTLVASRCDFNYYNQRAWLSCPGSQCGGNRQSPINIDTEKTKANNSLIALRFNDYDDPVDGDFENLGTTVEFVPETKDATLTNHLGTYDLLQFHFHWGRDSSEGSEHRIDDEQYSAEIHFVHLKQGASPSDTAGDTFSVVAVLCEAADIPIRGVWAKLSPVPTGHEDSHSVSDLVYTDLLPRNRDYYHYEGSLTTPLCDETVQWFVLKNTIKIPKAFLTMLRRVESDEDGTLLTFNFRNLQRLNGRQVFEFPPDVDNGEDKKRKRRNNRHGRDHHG
Consider the following molecules; for each one, report its Ki.
One number for each entry, in nM.

Previously resolved entries follow.
Molecule: CCN[C@H]1CN(CCCOC)S(=O)(=O)c2sc(S(N)(=O)=O)cc21 [BRINZOLAMIDE]
Ki / nM: 278
--
Molecule: Cc1ccc(S(N)(=O)=O)cc1 [P-TOLUENESULFONAMIDE]
Ki / nM: 675
--
Molecule: NNc1ccccc1S(N)(=O)=O
Ki / nM: 8850

List Ki for every entry below, keeping the order given.
1. NNc1ccc(S(N)(=O)=O)cc1
2. Nc1ccc(S(N)(=O)=O)cc1F
3. NS(=O)(=O)c1nnc(NS(=O)(=O)c2ccccc2)s1 [BENZOLAMIDE]

(A)
1: 6080; 2: 890; 3: 32

Field: Ki. Fill in for each record below.
1. NS(=O)(=O)c1ccc(CCNC(=O)c2ccc(S(N)(=O)=O)cc2)cc1
2. NCc1ccc(S(N)(=O)=O)cc1 [MAFENIDE]

(A)
1: 34; 2: 973
